A collection of compounds and their measured IC50
Tested on: IL-1β release from THP-1 cells
Assay: IL-1β release assay in differentiated THP-1 cells stimulated with BzATP (ELISA)
Format: cell-based
Details: Homo sapiens, released IL-1β as in Example 9, four parameter logistic fit, read-out: IL-Iβ IC50
Reply with just the number (in nM).

| compound | IC50 (nM) |
| --- | --- |
| O=C(NCc1ccc(C(F)(F)F)c(F)c1)c1cccc2c(=O)n(C3CC3)ccc12 | 119 |

Kindly consider the entry below.
Fill in reported IC50 for this entry: "C[C@H](C(N)=O)n1ccc2c(C(=O)NCc3ccc(Cl)c(C(F)(F)F)c3)cccc2c1=O"
21

----------
The molecules listed here are annotated with their IC50.
Test system: IL-1β release from THP-1 cells
Experiment: IL-1β release assay in differentiated THP-1 cells stimulated with BzATP (ELISA)
Format: cell-based
Details: Homo sapiens, released IL-1β as in Example 9, four parameter logistic fit, read-out: IL-Iβ IC50
The reply should be a number in nM, with the unit left off.

Examples with their reported IC50 follow.
| molecule | target-under-test | unit-symbol | IC50 |
| --- | --- | --- | --- |
| C[C@@H](C(N)=O)n1ccc2c(C(=O)NCc3ccc(Cl)c(Cl)c3)cccc2c1=O | IL-1β release from THP-1 cells | nM | 214 |
| O=C(NCc1ccc(C(F)(F)F)cc1)c1cccc2c(=O)n(C3CC3)ccc12 | IL-1β release from THP-1 cells | nM | 754 |
| CC(C(N)=O)n1ccc2c(C(=O)NCC3CCCCCC3)cccc2c1=O (stereo not drawn) | IL-1β release from THP-1 cells | nM | 654 |
| O=C(NCC1(O)CCCCCC1)c1cccc2c(=O)n(Cc3ccc4c(c3)OCCO4)ccc12 | IL-1β release from THP-1 cells | nM | 1.37 |

Find the measured IC50 of "O=C(NCc1ccc(Cl)c(F)c1)c1cccc2c(=O)n(C3CC3)ccc12" and report it.
107

Provide measured IC50 value, entry: "O=C(NCC1CCCCCC1)c1cccc2c1CCN(C(CO)CO)C2=O"
138
